- Tested on: S. flexneri ATCC 9199
- method.summary: Disc diffusion, S. flexneri
- Format: cell-based, Shigella flexneri
- condition.label: 1 mg per disc, 6 mm disc, 37 °C, 18–24 h
metric.name: Inhibition zone ± SD, S. flexneri

Look over these answered cases.
query: Provide only the value of recorded Inhibition zone ± SD, S. flexneri for C[C@H](CCC(=O)O)[C@H]1CC[C@H]2[C@@H]3CC[C@@H]4C[C@H](O)CC[C@]4(C)[C@H]3CC[C@]12C [LCA (1), lithocholic acid]
result: Inactive

query: Check the records and state Inhibition zone ± SD, S. flexneri for C[C@H](CCC(=O)[O-])[C@H]1CC[C@H]2[C@@H]3CC[C@@H]4C[C@H](O)CC[C@]4(C)[C@H]3C[C@H](O)[C@]12C.C[N+](C)(C)CCO [[DCA][Z] (8)]
result: Inactive

query: Let me know recorded Inhibition zone ± SD, S. flexneri for C[C@H](CCC(=O)O)[C@H]1CC[C@H]2[C@@H]3[C@H](O)C[C@@H]4C[C@H](O)CC[C@]4(C)[C@H]3CC[C@]12C [CDCA (13), chenodeoxycholic acid] , thanks.
result: Inactive

query: Determine from records and report Inhibition zone ± SD, S. flexneri for C[C@H](CCC(=O)[O-])[C@H]1CC[C@H]2[C@@H]3[C@H](O)C[C@@H]4C[C@H](O)CC[C@]4(C)[C@H]3CC[C@]12C.C[N+](C)(C)CCO [[CDCA][Z] (16)]
result: Inactive

Next:
query: Using the record for C[C@H](CCC(=O)O)[C@H]1CC[C@H]2[C@@H]3[C@@H](O)C[C@@H]4C[C@H](O)CC[C@]4(C)[C@H]3CC[C@]12C [UDCA (9), ursodeoxycholic acid] , state its measured Inhibition zone ± SD, S. flexneri.
result: Inactive
